Reported GI50 values are given for each entry in this list.
# Tested on: NCI/ADR-RES
# assay_name: NCI tumour cell line growth inhibition, 48 h
Activity calls are given as the source filed them. Rule as the data show it: active = GI50 up to about 1.1 µM and inactive = higher. Where a SMILES comes first, the peptide text is derived from it. Peptide text beside a SMILES is read from it. [ ]: non-standard residue; d: D form. The star is where a group is joined. * marks the point of attachment. Bn2Val = CC(C)[C@@H](C(=O)*)N(Cc1ccccc1)Cc1ccccc1; NH(3,4-diMeO-benzyl) = COc1ccc(CN*)cc1OC; NMeV = CN[C@H](C(=O)O)C(C)C; Boc = CC(C)(C)OC(=O)*

Before answering, review these 5 worked examples.
[
  {
    "compound": "S=c1nc(Nc2ccccc2)c2c3c(sc2[nH]1)CCCC3",
    "GI50": "> 100 µM (inactive)"
  },
  {
    "compound": "COc1ccc(C2C3COc4ccccc4C3=NN2c2ccccc2)cc1 (stereo not given)",
    "GI50": "> 100 µM (inactive)"
  },
  {
    "compound": "N#CC1(C#N)C2CCCCC23OC(=N)C1(C#N)C(c1ccco1)O3 (stereo not given)",
    "GI50": "44.3 µM (inactive)"
  },
  {
    "compound": "CC(=O)c1ccc(Nc2c3c(nc4ccccc24)CCCC3)cc1",
    "GI50": "10.4 µM (inactive)"
  },
  {
    "compound": "CCCCCCN1C(=O)CC(=O)N(CCCCCC)S1(=O)=O",
    "GI50": "21.7 µM (inactive)"
  }
]

QUERY: // returns reported GI50 for input Cc1ccc(Cc2cc(N3CCN(c4cccc(Cl)c4)CC3)nnc2C)cc1
RESULT: 43.3 µM (inactive)

QUERY: Would you mind telling me what GI50 value was observed for COC(=O)c1ccccc1NC(=O)C(=O)CC(=O)c1ccccc1NC1=CC(=O)C(=O)c2ccccc21 ?
RESULT: 2.33 µM (inactive)

QUERY: What GI50 value was documented for this compound, COc1ccc(/C=C2\CCS(=O)(=O)c3ccccc3C2=O)cc1OC ?
RESULT: 28.8 µM (inactive)

QUERY: What measured GI50 goes with O=C1N/C(=N/N=C\c2ccccc2)N/C1=C/c1ccccc1 ?
RESULT: 22.9 µM (inactive)

QUERY: Given the compound Cc1ccc(Nc2nc3c(=O)n(C)c(=O)n(C)c3nc2Nc2ccc(C)cc2)cc1 , what is its reported GI50?
RESULT: 17.2 µM (inactive)

QUERY: Entry COc1ccc(CNC(=O)[C@@H]2CCCN2C(=O)[C@@H]2CCCN2C(=O)[C@H](C(C)C)N(C)C(=O)[C@@H](NC(=O)[C@H](C(C)C)N(Cc2ccccc2)Cc2ccccc2)C(C)C)cc1OC (Bn2Val-V[NMeV]PP-{NH(3,4-diMeO-benzyl)}) : reported GI50 = ?
RESULT: 18.3 µM (inactive)

QUERY: So what does the record say about GI50 for O=C(NC(=O)c1cc(-c2ccccc2)n[nH]1)c1ccccc1 ?
RESULT: > 100 µM (inactive)

QUERY: Param item = COC(=O)C1=Nc2c(C)nn(-c3ccccc3)c2N=C(c2ccc(C)cc2)C1 ; retrieve measured GI50.
RESULT: > 10 µM (inactive)

QUERY: What GI50 value was documented for this compound, CCOCC(NC(=O)C(CC(C)C)NC(=O)OC(C)(C)C)C(N)=O (stereo not drawn) (Boc-Leu-Ser(Et)-NH2; configuration not given here) ?
RESULT: > 100 µM (inactive)

QUERY: Need GI50, item COc1ccc(-c2cn3c(nc4ccccc43)c(C)n2)cc1
RESULT: 33.6 µM (inactive)
